- system.name: Alpha-2C adrenergic receptor (Homo sapiens)
- experiment.description: Agonist activity at human adrenergic Alpha-2C receptor expressed in CHO cells assessed as inhibition of forskolin-induced cAMP accumulation
- Assay type: functional, cell-based
Entries and their pEC50 values follow.
Entry type: numeric. Quantity: pEC50, the -log10 of concentration in molar units.

The compound listed as CC(Oc1ccccc1-c1cccnc1)C1=NCCN1 (configuration not stated) shows pEC50 equal to 7.40

---
The compound listed as CC(Oc1ccccc1-c1cccc([N+](=O)[O-])c1)C1=NCCN1 (configuration not stated) shows pEC50 equal to 6.80

###

- system.name: Alpha-2C adrenergic receptor (Homo sapiens)
- Sequence (P18825 whole entry): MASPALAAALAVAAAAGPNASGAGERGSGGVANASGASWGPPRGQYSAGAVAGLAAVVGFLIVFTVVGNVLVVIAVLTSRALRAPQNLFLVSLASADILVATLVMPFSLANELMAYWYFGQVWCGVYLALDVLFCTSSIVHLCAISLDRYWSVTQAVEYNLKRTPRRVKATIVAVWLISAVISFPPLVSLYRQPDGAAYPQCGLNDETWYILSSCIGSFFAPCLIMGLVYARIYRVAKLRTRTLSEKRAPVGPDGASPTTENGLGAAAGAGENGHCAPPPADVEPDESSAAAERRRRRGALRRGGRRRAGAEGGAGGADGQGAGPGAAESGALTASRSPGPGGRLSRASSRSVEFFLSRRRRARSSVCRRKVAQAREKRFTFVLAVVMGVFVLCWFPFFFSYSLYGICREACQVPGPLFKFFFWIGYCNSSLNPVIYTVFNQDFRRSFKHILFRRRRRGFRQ
- Assay type: functional, cell-based, CHO
- Description: Agonist activity at human adrenergic alpha-2C receptor expressed in CHO cells assessed as extracellular acidification by cytosensor microphysiometry
Entries and their pEC50 values follow.
Entry type: numeric. Quantity: pEC50, the -log10 of concentration in molar units.

Solved cases below.
The compound listed as CC(Oc1ccccc1-c1cccc([N+](=O)[O-])c1)C1=NCCN1 (stereo not drawn) shows pEC50 equal to 7.00

The compound listed as c1ccc(-c2ccccc2C2OC2C2=NCCN2)cc1 (cis isomer) shows pEC50 equal to 5.57

The compound listed as CC(Oc1ccccc1-c1ccsc1)C1=NCCN1 (stereo not drawn) shows pEC50 equal to 7.03

---
The compound listed as Cc1ccccc1-c1ccccc1OC(C)C1=NCCN1 (stereo not drawn) shows pEC50 equal to 6.44

The compound listed as Cc1ccc(-c2ccccc2OC(C)C2=NCCN2)cc1 (stereo not drawn) shows pEC50 equal to 6.08

The compound listed as CC(Oc1ccccc1-c1cccs1)C1=NCCN1 (stereo not drawn) shows pEC50 equal to 7.23

The compound listed as CC(Oc1ccccc1-c1ccccc1)C1=NCCN1 (stereo not drawn) [BIPHENYLINE] shows pEC50 equal to 7.24

The compound listed as Cc1cccc(-c2ccccc2OC(C)C2=NCCN2)c1 (stereo not drawn) shows pEC50 equal to 5.80

###

- system.name: Nischarin (Homo sapiens, UniProt Q9Y2I1)
- Sequence (Q9Y2I1 whole entry): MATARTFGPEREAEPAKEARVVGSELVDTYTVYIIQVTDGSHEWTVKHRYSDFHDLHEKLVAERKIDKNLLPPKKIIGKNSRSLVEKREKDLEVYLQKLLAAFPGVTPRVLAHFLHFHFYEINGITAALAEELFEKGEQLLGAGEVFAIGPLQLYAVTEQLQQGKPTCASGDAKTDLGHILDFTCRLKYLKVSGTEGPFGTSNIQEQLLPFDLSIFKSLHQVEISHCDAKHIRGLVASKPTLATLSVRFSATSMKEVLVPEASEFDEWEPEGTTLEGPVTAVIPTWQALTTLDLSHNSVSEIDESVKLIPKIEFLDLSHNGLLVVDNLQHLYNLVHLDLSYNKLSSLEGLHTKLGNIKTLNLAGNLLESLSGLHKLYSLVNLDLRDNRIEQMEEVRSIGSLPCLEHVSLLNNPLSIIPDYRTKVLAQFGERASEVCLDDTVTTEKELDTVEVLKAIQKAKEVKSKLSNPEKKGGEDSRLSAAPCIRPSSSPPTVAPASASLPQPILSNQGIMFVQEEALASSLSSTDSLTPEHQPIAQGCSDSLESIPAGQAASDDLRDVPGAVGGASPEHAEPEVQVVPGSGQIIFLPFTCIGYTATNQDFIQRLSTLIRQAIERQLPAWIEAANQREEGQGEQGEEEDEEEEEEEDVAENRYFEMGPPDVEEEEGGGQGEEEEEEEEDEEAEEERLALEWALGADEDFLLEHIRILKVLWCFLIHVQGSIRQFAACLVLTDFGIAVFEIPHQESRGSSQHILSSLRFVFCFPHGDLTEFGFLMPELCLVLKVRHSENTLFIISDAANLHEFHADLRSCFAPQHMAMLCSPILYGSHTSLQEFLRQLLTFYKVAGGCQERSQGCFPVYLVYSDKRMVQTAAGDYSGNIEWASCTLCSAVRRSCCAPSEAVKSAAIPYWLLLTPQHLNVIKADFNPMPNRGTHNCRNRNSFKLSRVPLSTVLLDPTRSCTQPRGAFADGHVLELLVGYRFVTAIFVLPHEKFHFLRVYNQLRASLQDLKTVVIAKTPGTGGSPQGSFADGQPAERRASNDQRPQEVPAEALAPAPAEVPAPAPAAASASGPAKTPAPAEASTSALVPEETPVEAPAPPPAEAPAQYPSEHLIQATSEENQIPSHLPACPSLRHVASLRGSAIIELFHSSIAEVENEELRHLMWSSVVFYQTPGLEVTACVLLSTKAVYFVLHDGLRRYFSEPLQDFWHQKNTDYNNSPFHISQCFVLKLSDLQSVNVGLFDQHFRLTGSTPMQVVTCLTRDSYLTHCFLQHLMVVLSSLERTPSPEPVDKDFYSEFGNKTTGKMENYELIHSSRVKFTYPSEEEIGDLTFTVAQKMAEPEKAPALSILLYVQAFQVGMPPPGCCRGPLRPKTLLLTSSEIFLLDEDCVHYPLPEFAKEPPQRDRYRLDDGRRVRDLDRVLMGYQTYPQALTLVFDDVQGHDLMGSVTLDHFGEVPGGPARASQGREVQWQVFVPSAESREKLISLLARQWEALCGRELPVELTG
- experiment.description: Binding affinity to imidazoline receptor 1
readout.name: Ki (nM)
Your answer should be a plain number; it is taken to be in nM.

The compound listed as CC(Oc1ccccc1-c1ccccc1)C1=NCCN1 (stereo unspecified) [BIPHENYLINE] shows Ki equal to 126

###

- system.name: Alpha-2B adrenergic receptor (Homo sapiens)
- Sequence (P18089 whole entry): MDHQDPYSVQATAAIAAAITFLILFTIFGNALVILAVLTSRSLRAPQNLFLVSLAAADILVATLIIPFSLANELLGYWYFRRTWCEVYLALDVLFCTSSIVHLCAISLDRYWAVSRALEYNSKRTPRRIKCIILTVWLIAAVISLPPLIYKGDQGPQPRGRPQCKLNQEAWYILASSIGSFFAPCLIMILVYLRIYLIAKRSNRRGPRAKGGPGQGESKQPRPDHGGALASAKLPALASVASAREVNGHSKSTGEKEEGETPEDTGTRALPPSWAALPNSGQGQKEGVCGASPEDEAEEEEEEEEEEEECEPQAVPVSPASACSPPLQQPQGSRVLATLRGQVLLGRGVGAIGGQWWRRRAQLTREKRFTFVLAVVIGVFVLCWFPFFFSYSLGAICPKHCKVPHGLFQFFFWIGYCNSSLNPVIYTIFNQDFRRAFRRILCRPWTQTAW
readout.name: Ki (µM)
Your answer should be a plain number; it is taken to be in µM.

Solved cases below.
The molecule listed as CC(Oc1ccccc1-c1ccccc1O)C1=NCCN1 (centres undefined) shows Ki equal to 1

The molecule listed as c1ccc(-c2ccccc2C2OC2C2=NCCN2)cc1 (cis isomer) shows Ki equal to 20

The molecule listed as CC(Oc1ccccc1-c1ccccc1)C1=NCCC1 (centres undefined) shows Ki equal to 10

The molecule listed as CC(Sc1ccccc1-c1ccccc1)C1=NCCN1 (centres undefined) shows Ki equal to 3.55

The molecule listed as CC(Oc1ccccc1-c1ccccc1)C1=NCCN1 (centres undefined) [BIPHENYLINE] shows Ki equal to 0.501

The molecule listed as c1ccc(-c2ccccc2C2OC2C2=NCCN2)cc1 (centres undefined) shows Ki equal to 1.23

The molecule listed as CC(Oc1ccccc1-c1ccc([N+](=O)[O-])cc1)C1=NCCN1 (centres undefined) shows Ki equal to 0.501

The molecule listed as CC(Oc1ccccc1-c1ccccc1)C1=NCCO1 (centres undefined) shows Ki equal to 10

The molecule listed as CC(Oc1ccccc1-c1cccc([N+](=O)[O-])c1)C1=NCCN1 (centres undefined) shows Ki equal to 0.661

The molecule listed as Cc1ccc(-c2ccccc2OC(C)C2=NCCN2)cc1 (centres undefined) shows Ki equal to 0.398

---
The molecule listed as CC(Oc1ccccc1-c1cccc(N)c1)C1=NCCN1 (centres undefined) shows Ki equal to 0.479

The molecule listed as CC(Oc1ccccc1-c1ccc(O)cc1)C1=NCCN1 (centres undefined) shows Ki equal to 0.813

The molecule listed as CC(Oc1ccccc1-c1cccnc1)C1=NCCN1 (centres undefined) shows Ki equal to 0.933

###

- system.name: Alpha-2A adrenergic receptor (Homo sapiens, UniProt P08913)
- Sequence (P08913 whole entry): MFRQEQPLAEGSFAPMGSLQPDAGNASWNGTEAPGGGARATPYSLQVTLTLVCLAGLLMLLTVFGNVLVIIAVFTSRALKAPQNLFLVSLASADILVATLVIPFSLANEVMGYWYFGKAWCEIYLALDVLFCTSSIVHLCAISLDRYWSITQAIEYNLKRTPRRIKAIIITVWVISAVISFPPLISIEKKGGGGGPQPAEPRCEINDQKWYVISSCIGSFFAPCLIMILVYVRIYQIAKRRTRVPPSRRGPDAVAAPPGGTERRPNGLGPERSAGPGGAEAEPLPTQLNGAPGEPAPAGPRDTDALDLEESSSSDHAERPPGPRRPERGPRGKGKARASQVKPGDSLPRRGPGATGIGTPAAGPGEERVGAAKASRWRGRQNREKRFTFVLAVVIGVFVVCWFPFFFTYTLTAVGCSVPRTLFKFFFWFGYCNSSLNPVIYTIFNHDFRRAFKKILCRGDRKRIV
- Format: functional, cell-based, CHO
- Description: Agonist activity at human adrenergic alpha-2A receptor expressed in CHO cells assessed as extracellular acidification by cytosensor microphysiometry
readout.name: log10 of EC50 (log10 of the value in nM)
Log10 applied to EC50; unit prior to transform: nM.

Solved cases below.
The molecule listed as CC(Oc1ccccc1-c1cccnc1)C1=NCCN1 (stereo not drawn) shows log10 of EC50 equal to 2.50

The molecule listed as CC(Oc1ccccc1-c1ccccc1)C1=NCCN1 (stereo not drawn) [BIPHENYLINE] shows log10 of EC50 equal to 2.06

The molecule listed as c1ccc(-c2ccccc2C2OC2C2=NCCN2)cc1 (cis isomer) shows log10 of EC50 equal to 3.54

The molecule listed as CC(Oc1ccccc1-c1cccs1)C1=NCCN1 (stereo not drawn) shows log10 of EC50 equal to 1.62

---
The molecule listed as CC(Nc1ccccc1-c1ccccc1)C1=NCCN1 (stereo not drawn) shows log10 of EC50 equal to 2.59

The molecule listed as CC(Oc1ccccc1-c1ccsc1)C1=NCCN1 (stereo not drawn) shows log10 of EC50 equal to 1.88

The molecule listed as CC(Oc1ccccc1-c1cccc(F)c1)C1=NCCN1 (stereo not drawn) shows log10 of EC50 equal to 2.02

The molecule listed as CC(Oc1ccccc1-c1cccc(N)c1)C1=NCCN1 (stereo not drawn) shows log10 of EC50 equal to 2.41

###

- system.name: Alpha-2B adrenergic receptor (Homo sapiens)
- experiment.description: Agonist activity at human adrenergic alpha-2B receptor expressed in CHO cells assessed as extracellular acidification by cytosensor microphysiometry
readout.name: EC50 (nM)
Your answer should be a plain number; it is taken to be in nM.

The compound listed as CC(Oc1ccccc1-c1cccc(O)c1)C1=NCCN1 (stereo not given) shows EC50 equal to 5250

The compound listed as CC(Oc1ccccc1-c1ccccc1)C1=NCCN1 (stereo not given) [BIPHENYLINE] shows EC50 equal to 646

The compound listed as CC(Oc1ccccc1-c1cccs1)C1=NCCN1 (stereo not given) shows EC50 equal to 1000

The compound listed as CC(Nc1ccccc1-c1ccccc1)C1=NCCN1 (stereo not given) shows EC50 equal to 3800

Read the next record carefully.
The compound listed as CC(Oc1ccccc1-c1cccnc1)C1=NCCN1 (stereo not given) shows EC50 equal to 1000

###

- system.name: Alpha-2C adrenergic receptor (Homo sapiens, UniProt P18825)
- Sequence (P18825 whole entry): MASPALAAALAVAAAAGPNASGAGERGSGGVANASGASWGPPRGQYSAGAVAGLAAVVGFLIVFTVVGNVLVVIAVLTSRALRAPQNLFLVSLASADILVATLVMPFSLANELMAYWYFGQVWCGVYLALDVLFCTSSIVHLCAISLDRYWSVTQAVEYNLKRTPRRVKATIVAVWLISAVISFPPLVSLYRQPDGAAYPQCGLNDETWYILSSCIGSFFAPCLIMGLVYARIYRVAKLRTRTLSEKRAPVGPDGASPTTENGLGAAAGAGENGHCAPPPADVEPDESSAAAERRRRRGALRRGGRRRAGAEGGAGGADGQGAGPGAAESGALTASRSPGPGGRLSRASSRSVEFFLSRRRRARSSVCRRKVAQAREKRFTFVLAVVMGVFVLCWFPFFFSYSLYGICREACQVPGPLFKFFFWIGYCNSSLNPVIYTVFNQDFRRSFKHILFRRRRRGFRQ
pKi: −log10 of the molar value.
The label depends only on pKi: satisfied if it is at least 7, not satisfied if it is smaller.

[Q] Hello, I need to know if CC(Oc1ccccc1-c1ccccc1)C1=NCCN1 (centres undefined) has measured pKi not below 7. Thanks!
[A] not satisfied

[Q] Hello, I need to know if CC(Oc1ccccc1-c1ccc([N+](=O)[O-])cc1)C1=NCCN1 (centres undefined) has measured pKi not below 7. Thanks!
[A] not satisfied

[Q] Hello, I need to know if Cc1cccc(-c2ccccc2OC(C)C2=NCCN2)c1 (centres undefined) has measured pKi not below 7. Thanks!
[A] not satisfied

[Q] Hello, I need to know if CC(Oc1ccccc1-c1cccc([N+](=O)[O-])c1)C1=NCCN1 (centres undefined) has measured pKi not below 7. Thanks!
[A] not satisfied

[Q] Hello, I need to know if CC(Oc1ccccc1-c1cccc(O)c1)C1=NCCN1 (centres undefined) has measured pKi not below 7. Thanks!
[A] satisfied

[Q] Hello, I need to know if c1ccc(-c2ccccc2C2OC2C2=NCCN2)cc1 (centres undefined) has measured pKi not below 7. Thanks!
[A] not satisfied

---
[Q] Hello, I need to know if CC(Oc1ccccc1-c1cccc(F)c1)C1=NCCN1 (centres undefined) has measured pKi not below 7. Thanks!
[A] satisfied

[Q] Hello, I need to know if CC(Nc1ccccc1-c1ccccc1)C1=NCCN1 (centres undefined) has measured pKi not below 7. Thanks!
[A] not satisfied

[Q] Hello, I need to know if CC(Sc1ccccc1-c1ccccc1)C1=NCCN1 (centres undefined) has measured pKi not below 7. Thanks!
[A] not satisfied

[Q] Hello, I need to know if CC(Oc1ccccc1-c1ccccc1[N+](=O)[O-])C1=NCCN1 (centres undefined) has measured pKi not below 7. Thanks!
[A] not satisfied

[Q] Hello, I need to know if CC(Oc1ccccc1-c1cccc(N)c1)C1=NCCN1 (centres undefined) has measured pKi not below 7. Thanks!
[A] not satisfied

[Q] Hello, I need to know if Cc1ccc(-c2ccccc2OC(C)C2=NCCN2)cc1 (centres undefined) has measured pKi not below 7. Thanks!
[A] not satisfied

[Q] Hello, I need to know if c1ccc(-c2ccccc2C2OC2C2=NCCN2)cc1 (cis isomer) has measured pKi not below 7. Thanks!
[A] not satisfied
